These data points were gathered from paper PMC6493465.

# ASSAY PROCEDURE: Pharmacokinetic assays (plasma and tumor) in nude mice xenografted with MV4-11 cells
# Type: in vivo, mouse
# TEST PARAMETERS: nude, mouse, plasma, iv, 0.5 mg/kg; read-out: Vss
# Protocol: Plasma samples were prepared by centrifugation (n=3 per group; one sample in the combination group was excluded due to improper handling). […] These assays were conducted by Astellas Research Technologies Co., Ltd. under the guidance of Analysis & Pharmacokinetics Research Laboratories, Astellas Pharma, Inc., or by Nemoto Science Co., Ltd. (Ibaraki, Japan). […] The percent tumor regression was calculated using the formula: […]
Where a name gives a salt, the structure may show the parent alone.
ASSAY READOUT: Vd (L/kg)
Numbers only, in L/kg.

Find the recorded Vd belonging to CC(=O)[C@]1(O)Cc2c(O)c3c(c(O)c2[C@@H](O[C@H]2C[C@H](N)[C@H](O)[C@H](C)O2)C1)C(=O)c1ccccc1C3=O [IDR, Idarubicin hydrochloride] and report it.
26.7
